# TEST TARGET: Coagulation factor XII (Homo sapiens) (UniProt P00748)
# Sequence (whole entry): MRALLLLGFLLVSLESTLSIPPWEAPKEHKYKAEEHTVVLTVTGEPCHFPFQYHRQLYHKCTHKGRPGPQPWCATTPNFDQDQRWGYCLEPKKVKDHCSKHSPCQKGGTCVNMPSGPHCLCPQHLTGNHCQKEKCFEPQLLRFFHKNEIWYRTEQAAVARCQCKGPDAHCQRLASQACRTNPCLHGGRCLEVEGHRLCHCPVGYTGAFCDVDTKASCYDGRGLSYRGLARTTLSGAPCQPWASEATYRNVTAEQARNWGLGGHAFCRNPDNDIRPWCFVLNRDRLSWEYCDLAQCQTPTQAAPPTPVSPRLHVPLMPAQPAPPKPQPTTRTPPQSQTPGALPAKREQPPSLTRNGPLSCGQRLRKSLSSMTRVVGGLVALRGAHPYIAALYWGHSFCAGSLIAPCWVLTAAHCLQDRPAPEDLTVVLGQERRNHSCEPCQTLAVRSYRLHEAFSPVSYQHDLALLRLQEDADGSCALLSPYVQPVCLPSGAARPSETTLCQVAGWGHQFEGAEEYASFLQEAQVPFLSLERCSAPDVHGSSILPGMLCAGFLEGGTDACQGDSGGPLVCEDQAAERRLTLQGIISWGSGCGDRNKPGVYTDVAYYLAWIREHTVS
# EXPERIMENTAL DETAILS: Inhibition of human coagulation factor XII (inhibitor concentration were 3.6-4.9 uM)
QUANTITY NAME: log10(K obs / 1) (log10 of the value in M⁻¹ s⁻¹)

- SUBSTANCE SMILES: "N=C(N)SCCOc1oc(=O)c2cc(NC(=O)NCc3ccccc3)ccc2c1Cl"
  TEST TARGET: "Coagulation factor XII (Homo sapiens) (UniProt P00748)"
  QUANTITY NAME: "log10(K obs / 1)"
  REPORTED: 4.65
- SUBSTANCE SMILES: "N=C(N)SCCOc1oc(=O)c2cc(NC(=O)Nc3ccccc3)ccc2c1Cl"
  TEST TARGET: "Coagulation factor XII (Homo sapiens) (UniProt P00748)"
  QUANTITY NAME: "log10(K obs / 1)"
  REPORTED: 4.70
- SUBSTANCE SMILES: "N=C(N)SCCOc1oc(=O)c2cc(NC(=O)Cc3ccccc3)ccc2c1Cl"
  TEST TARGET: "Coagulation factor XII (Homo sapiens) (UniProt P00748)"
  QUANTITY NAME: "log10(K obs / 1)"
  REPORTED: 4.77
- SUBSTANCE SMILES: "CCOc1oc(=O)c2cc(NC(=N)N)ccc2c1Cl"
  TEST TARGET: "Coagulation factor XII (Homo sapiens) (UniProt P00748)"
  QUANTITY NAME: "log10(K obs / 1)"
  REPORTED: 4.34
- SUBSTANCE SMILES: "O=c1oc(Cl)c(Cl)c2ccccc12"
  TEST TARGET: "Coagulation factor XII (Homo sapiens) (UniProt P00748)"
  QUANTITY NAME: "log10(K obs / 1)"
  REPORTED: 1.81
- SUBSTANCE SMILES: "N=C(N)SCCOc1oc(=O)c2cc(NC(=O)[C@H](N)Cc3ccccc3)ccc2c1Cl"
  TEST TARGET: "Coagulation factor XII (Homo sapiens) (UniProt P00748)"
  QUANTITY NAME: "log10(K obs / 1)"
  REPORTED: 5.03
- SUBSTANCE SMILES: "N=C(N)SCCCOc1oc(=O)c2cc(NC(=O)Nc3ccccc3)ccc2c1Cl"
  TEST TARGET: "Coagulation factor XII (Homo sapiens) (UniProt P00748)"
  QUANTITY NAME: "log10(K obs / 1)"
  REPORTED: 3.89
- SUBSTANCE SMILES: "N=C(N)SCCCOc1oc(=O)c2cc(NC(=O)Cc3ccccc3)ccc2c1Cl"
  TEST TARGET: "Coagulation factor XII (Homo sapiens) (UniProt P00748)"
  QUANTITY NAME: "log10(K obs / 1)"
  REPORTED: 2.79
- SUBSTANCE SMILES: "N=C(N)SCCOc1oc(=O)c2cc(NC(=O)[C@@H](N)Cc3ccccc3)ccc2c1Cl"
  TEST TARGET: "Coagulation factor XII (Homo sapiens) (UniProt P00748)"
  QUANTITY NAME: "log10(K obs / 1)"
  REPORTED: 4.91
- SUBSTANCE SMILES: "N=C(N)SCCCOc1oc(=O)c2cc(N)ccc2c1Cl"
  TEST TARGET: "Coagulation factor XII (Homo sapiens) (UniProt P00748)"
  QUANTITY NAME: "log10(K obs / 1)"
  REPORTED: 3.79
- SUBSTANCE SMILES: "N=C(N)SCCCOc1oc(=O)c2ccccc2c1Cl"
  TEST TARGET: "Coagulation factor XII (Homo sapiens) (UniProt P00748)"
  QUANTITY NAME: "log10(K obs / 1)"
  REPORTED: 4.43

====

# TEST TARGET: Prothrombin (Homo sapiens)
# EXPERIMENTAL DETAILS: Inhibition of human thrombin (inhibitor concentration 1.2-54 uM)
Threshold check on K obs / 1: strictly below 600 M⁻¹ s⁻¹ is True; on or above 600 M⁻¹ s⁻¹ is False.

- SUBSTANCE SMILES: "N=C(N)SCCCOc1oc(=O)c2cc(NC(=O)Nc3ccccc3)ccc2c1Cl"
  LABEL CLASS: "False"
- SUBSTANCE SMILES: "N=C(N)SCCCOc1oc(=O)c2cc(NC(=O)[C@@H](N)Cc3ccccc3)ccc2c1Cl"
  LABEL CLASS: "True"
- SUBSTANCE SMILES: "N=C(N)SCCOc1oc(=O)c2cc(NC(=O)NC(c3ccccc3)c3ccccc3)ccc2c1Cl"
  LABEL CLASS: "False"
- SUBSTANCE SMILES: "CC(=O)Nc1ccc2c(Cl)c(OCCCSC(=N)N)oc(=O)c2c1"
  LABEL CLASS: "True"
- SUBSTANCE SMILES: "CC(C)(C)OC(=O)N[C@@H](Cc1ccccc1)C(=O)Nc1ccc2c(Cl)c(OCCSC(=N)N)oc(=O)c2c1"
  LABEL CLASS: "False"
- SUBSTANCE SMILES: "N=C(N)SCCCOc1oc(=O)c2cc(NC(=O)[C@H](N)Cc3ccccc3)ccc2c1Cl"
  LABEL CLASS: "True"
- SUBSTANCE SMILES: "N=C(N)SCCCOc1oc(=O)c2cc(N)ccc2c1Cl"
  LABEL CLASS: "False"

====

Listed below: K obs / 1 values for each entry.
# TEST TARGET: Coagulation factor IX (Homo sapiens)
# EXPERIMENTAL DETAILS: Inhibition of porcine factor IXa at 8.3-82 uM
# RUN PARAMETERS: Sus scrofa, target entry is the homologue from another species
Peptide text beside a SMILES is read from it. * marks the point of attachment. Dansyl = CN(C)c1cccc2c(S(=O)(=O)*)cccc12; CH2Cl = ClC*
QUANTITY NAME: K obs / 1 (M⁻¹ s⁻¹)

- COMPOUND: "N=C(N)SCCOc1oc(=O)c2cc(NC(=O)Cc3ccccc3)ccc2c1Cl"
  REPORTED: 2620
- COMPOUND: "CCOc1oc(=O)c2cc(NC(=N)N)ccc2c1Cl"
  REPORTED: 2850
- COMPOUND: "N=C(N)SCCCOc1oc(=O)c2cc(NC(=O)Cc3ccccc3)ccc2c1Cl"
  REPORTED: 610
- COMPOUND: "N=C(N)SCCCOc1oc(=O)c2cc(N)ccc2c1Cl"
  REPORTED: 80
- COMPOUND: "C[C@H](NC(=O)Nc1ccc2c(Cl)c(OCCSC(=N)N)oc(=O)c2c1)c1ccccc1"
  REPORTED: 3980
- COMPOUND: "N=C(N)SCCCOc1oc(=O)c2ccccc2c1Cl"
  REPORTED: 90
- COMPOUND: "N=C(N)SCCOc1oc(=O)c2cc(NC(=O)NCc3ccccc3)ccc2c1Cl"
  REPORTED: 2320
- COMPOUND: "N=C(N)SCCOc1oc(=O)c2cc(NC(=O)Nc3ccccc3)ccc2c1Cl"
  REPORTED: 1790
- COMPOUND: "N=C(N)SCCCOc1oc(=O)c2cc(NC(=O)Nc3ccccc3)ccc2c1Cl"
  REPORTED: 110
- COMPOUND: "N=C(N)SCCOc1oc(=O)c2cc(NC(=O)[C@H](N)Cc3ccccc3)ccc2c1Cl"
  REPORTED: 1590
- COMPOUND: "O=c1oc(Cl)c(Cl)c2ccccc12"
  REPORTED: 10
- COMPOUND: "CN(C)c1cccc2c(S(=O)(=O)N[C@@H](CCC(=O)O)C(=O)NCC(=O)N[C@@H](CCCN=C(N)N)C(=O)CCl)cccc12 (Dansyl-Glu-Gly-Arg-CH2Cl)"
  REPORTED: 180

Values compiled from ChEMBL document CHEMBL1127646.
